B1: WDFY1 (parent)
chain: LLIPKEDGVITASEDRTIRVWLKR

Variants of: B1
protocol-description: protein stability index of a GFP-peptide fusion (GPS, HEK-293T) (PSI 1-6); higher = more stable;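 further: lentivirally expressed fusions sorted by FACS into six bins by GFP to DsRed ratio, PSI derived from sequencing read proportions per bin multiplied by bin number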
measurement-context: c terminus: a fixed tail appended
measured-endpoint: protein stability index
// print number alone

Task item: I'd like to know its protein stability index. The variant in question is W21N
Reply: 3.33

Task item: I'd like to know its protein stability index. The variant in question is I10L
Reply: 2.21

Task item: I'd like to know its protein stability index. The variant in question is L22S
Reply: 2.79

Task item: I'd like to know its protein stability index. The variant in question is T17G
Reply: 1.39

Task item: I'd like to know its protein stability index. The variant in question is R19W
Reply: 1.71

Task item: I'd like to know its protein stability index. The variant in question is R16N
Reply: 3.22

Task item: I'd like to know its protein stability index. The variant in question is R24S
Reply: 2.18

Task item: I'd like to know its protein stability index. The variant in question is I10S
Reply: 2.07

Task item: I'd like to know its protein stability index. The variant in question is S13P
Reply: 1.66

Task item: I'd like to know its protein stability index. The variant in question is S13T
Reply: 2.2

Task item: I'd like to know its protein stability index. The variant in question is E6K
Reply: 2.18

Task item: I'd like to know its protein stability index. The variant in question is E6D
Reply: 2.82

Task item: I'd like to know its protein stability index. The variant in question is I18E
Reply: 2.52

Task item: I'd like to know its protein stability index. The variant in question is I18Y
Reply: 2.04

Task item: I'd like to know its protein stability index. The variant in question is R16C
Reply: 1.6

Task item: I'd like to know its protein stability index. The variant in question is K23S
Reply: 2.1

Task item: I'd like to know its protein stability index. The variant in question is D15V
Reply: 1.37

Task item: I'd like to know its protein stability index. The variant in question is L1V
Reply: 2.56

Task item: I'd like to know its protein stability index. The variant in question is A12K
Reply: 2.19

Task item: I'd like to know its protein stability index. The variant in question is K23T
Reply: 2.62

Task item: I'd like to know its protein stability index. The variant in question is P4T
Reply: 1.89

Task item: I'd like to know its protein stability index. The variant in question is L1T
Reply: 3.62

Task item: I'd like to know its protein stability index. The variant in question is T11F
Reply: 2.4

Task item: I'd like to know its protein stability index. The variant in question is L2P
Reply: 2.66

Task item: I'd like to know its protein stability index. The variant in question is T17D
Reply: 1.94

Task item: I'd like to know its protein stability index. The variant in question is T11G
Reply: 1.98

Task item: I'd like to know its protein stability index. The variant in question is T17V
Reply: 1.71

Task item: I'd like to know its protein stability index. The variant in question is R19P
Reply: 2.45

Task item: I'd like to know its protein stability index. The variant in question is E6V
Reply: 1.42

Task item: I'd like to know its protein stability index. The variant in question is K5Y
Reply: 2.91

Task item: I'd like to know its protein stability index. The variant in question is G8Y
Reply: 1.74

Task item: I'd like to know its protein stability index. The variant in question is W21D
Reply: 3.87

Task item: I'd like to know its protein stability index. The variant in question is R16G
Reply: 1.89

Task item: I'd like to know its protein stability index. The variant in question is L1S
Reply: 2.93

Task item: I'd like to know its protein stability index. The variant in question is D7E
Reply: 3.03

Task item: I'd like to know its protein stability index. The variant in question is I10Q
Reply: 2.62

Task item: I'd like to know its protein stability index. The variant in question is E14F
Reply: 2.37

Task item: I'd like to know its protein stability index. The variant in question is V9R
Reply: 2.33

Task item: I'd like to know its protein stability index. The variant in question is E14V
Reply: 1.9

Task item: I'd like to know its protein stability index. The variant in question is E6T
Reply: 1.77

Task item: I'd like to know its protein stability index. The variant in question is R24N
Reply: 2.34

Task item: I'd like to know its protein stability index. The variant in question is G8W
Reply: 1.94

Task item: I'd like to know its protein stability index. The variant in question is D7N
Reply: 1.58

Task item: I'd like to know its protein stability index. The variant in question is D15Y
Reply: 2.97

Task item: I'd like to know its protein stability index. The variant in question is T17N
Reply: 2.77

Task item: I'd like to know its protein stability index. The variant in question is R16I
Reply: 1.43
